Please consider the recorded pIC50 for UniProt:O42275 in what follows.
Sequence (O42275 whole entry): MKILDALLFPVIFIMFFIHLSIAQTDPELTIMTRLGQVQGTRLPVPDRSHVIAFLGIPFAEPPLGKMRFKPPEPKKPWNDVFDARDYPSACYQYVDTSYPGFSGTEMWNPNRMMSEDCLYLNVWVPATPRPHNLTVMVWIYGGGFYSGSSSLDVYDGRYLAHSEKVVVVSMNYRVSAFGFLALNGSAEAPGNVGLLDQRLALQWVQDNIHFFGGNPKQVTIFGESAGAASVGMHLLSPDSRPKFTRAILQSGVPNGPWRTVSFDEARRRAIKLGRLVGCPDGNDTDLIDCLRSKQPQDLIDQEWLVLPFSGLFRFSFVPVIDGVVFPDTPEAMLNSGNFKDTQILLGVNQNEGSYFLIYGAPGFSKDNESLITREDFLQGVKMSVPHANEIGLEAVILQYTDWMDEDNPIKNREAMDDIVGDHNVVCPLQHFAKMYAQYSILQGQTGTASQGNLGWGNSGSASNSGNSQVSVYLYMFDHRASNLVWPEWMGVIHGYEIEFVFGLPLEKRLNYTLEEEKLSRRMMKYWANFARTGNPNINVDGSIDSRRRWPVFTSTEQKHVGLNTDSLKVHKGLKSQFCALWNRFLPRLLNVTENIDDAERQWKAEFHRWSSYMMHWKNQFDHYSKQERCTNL
Please treat pIC50 as minus the base-10 logarithm of the molar concentration.

Here are 3 molecules together with their reported answers.
STRUCTURE SMILES | REPORTED ENDPOINT | ENDPOINT VALUE
O=C(Nc1ccc2nc3n(c(=O)c2c1)CCC3)c1cc2cc(F)ccc2[nH]1 | pIC50 | 6.11
Cc1cc2nc3n(c(=O)c2cc1NC(=O)c1cc2cc(Cl)ccc2[nH]1)CCC3 | pIC50 | 5.97
O=C(Cc1cc2ccccc2[nH]1)Nc1ccc2nc3n(c(=O)c2c1)CCC3 | pIC50 | 6.01

Asked: Enter reported pIC50 observed with UniProt:O42275 for COc1ccc2[nH]c(C(=O)Nc3ccc4nc5n(c(=O)c4c3)CCC5)cc2c1
Given back: 6.92

Asked: Give pIC50 (UniProt:O42275) of the following molecule: O=C(CCCc1cc2ccccc2[nH]1)Nc1ccc2nc3n(c(=O)c2c1)CCC3
Given back: 5.20

Asked: Kindly state the measured pIC50 obtained for O=C(Nc1ccc2nc3n(c(=O)c2c1)CCC3)c1cc2ccccc2s1 with UniProt:O42275.
Given back: 5.60

Asked: Give UniProt:O42275 pIC50 for O=C(Nc1ccc2nc3n(c(=O)c2c1)CCC3)c1cc2cc(Cl)ccc2[nH]1
Given back: 6.59

Asked: Item O=C(Nc1ccc2nc3n(c(=O)c2c1)CCC3)c1cc2ccccc2[nH]1 with UniProt:O42275 - pIC50?
Given back: 5.81

Asked: What reported pIC50 corresponds to Cc1cc2nc3n(c(=O)c2cc1NC(=O)c1cc2cc(F)ccc2[nH]1)CCC3 on UniProt:O42275?
Given back: 5.87

Asked: Hello, I am looking for reported pIC50 with UniProt:O42275 for O=C(/C=C/c1cc2ccccc2[nH]1)Nc1ccc2nc3n(c(=O)c2c1)CCC3 . Could you help?
Given back: 5.78

Asked: Return pIC50 measured with UniProt:O42275 given this molecule: O=C(Nc1ccc2nc3n(c(=O)c2c1)CCC3)c1cc2ccccc2o1
Given back: 5.82

Asked: Query pIC50 on UniProt:O42275 for COc1ccc2[nH]c(C(=O)Nc3cc4c(=O)n5c(nc4cc3C)CCC5)cc2c1
Given back: 5.68

###

- TGT: Amyloid-beta precursor protein (Homo sapiens, UniProt P05067)
- Sequence (P05067 whole entry): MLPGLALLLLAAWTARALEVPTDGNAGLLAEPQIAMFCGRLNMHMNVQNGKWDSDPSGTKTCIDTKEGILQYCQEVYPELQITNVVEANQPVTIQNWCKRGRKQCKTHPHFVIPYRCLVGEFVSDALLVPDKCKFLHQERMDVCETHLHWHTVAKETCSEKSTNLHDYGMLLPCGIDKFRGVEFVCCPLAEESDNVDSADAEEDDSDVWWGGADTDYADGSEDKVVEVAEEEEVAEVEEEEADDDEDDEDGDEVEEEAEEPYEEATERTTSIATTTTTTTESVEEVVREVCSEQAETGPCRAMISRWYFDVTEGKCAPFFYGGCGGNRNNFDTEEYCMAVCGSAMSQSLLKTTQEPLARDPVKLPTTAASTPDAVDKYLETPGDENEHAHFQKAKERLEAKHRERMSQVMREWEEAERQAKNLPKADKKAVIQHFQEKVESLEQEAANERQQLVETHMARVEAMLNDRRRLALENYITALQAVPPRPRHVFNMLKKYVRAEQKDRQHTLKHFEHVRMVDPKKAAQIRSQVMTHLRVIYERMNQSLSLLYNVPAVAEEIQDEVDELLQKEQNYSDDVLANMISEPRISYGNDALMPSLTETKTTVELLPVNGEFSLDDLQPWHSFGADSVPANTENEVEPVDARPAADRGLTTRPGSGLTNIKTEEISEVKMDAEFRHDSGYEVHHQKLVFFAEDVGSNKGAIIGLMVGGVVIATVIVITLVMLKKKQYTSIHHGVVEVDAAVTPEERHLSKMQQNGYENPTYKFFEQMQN
// class assignment uses IC50 with these ranges: category 1 = under 2000 nM, category 2 = from 2000 nM up to 3000 nM, category 3 = 3000 nM and over

STRUCTURE SMILES | CAT
COc1ccc2[nH]c(C(=O)Nc3ccc4nc5n(c(=O)c4c3)CCC5)cc2c1 | category 1
O=C(Cc1cc2ccccc2[nH]1)Nc1ccc2nc3n(c(=O)c2c1)CCC3 | category 1
O=C(Nc1ccc2nc3n(c(=O)c2c1)CCC3)c1cc2cc(F)ccc2[nH]1 | category 1

Asked: Class label required: O=C(CCCc1cc2ccccc2[nH]1)Nc1ccc2nc3n(c(=O)c2c1)CCC3
Given back: category 3

Asked: Class (by measured IC50) for O=C(Nc1ccc2nc3n(c(=O)c2c1)CCC3)c1cc2ccccc2o1
Given back: category 3

Asked: Record COc1ccc2[nH]c(C(=O)Nc3cc4c(=O)n5c(nc4cc3C)CCC5)cc2c1 — which class?
Given back: category 3

Asked: Bin this entry: O=C(Nc1ccc2nc3n(c(=O)c2c1)CCC3)c1cc2cc(Cl)ccc2[nH]1
Given back: category 1
